The origin of these recorded values is patent US20240239788A1.

biological target: KRAS protein containing G12D mutation (Homo sapiens (Human), UniProt P01116, G12D); test: SOS-catalyzed nucleotide exchange assay (GNE), TR-FRET; type: biochemical; settings: biotinylated KRAS G12D, SOS and GTP, 60-minute incubation
Sequence (P01116 other isoform, or with tags, fused parts or gaps G12D (already in the parent)): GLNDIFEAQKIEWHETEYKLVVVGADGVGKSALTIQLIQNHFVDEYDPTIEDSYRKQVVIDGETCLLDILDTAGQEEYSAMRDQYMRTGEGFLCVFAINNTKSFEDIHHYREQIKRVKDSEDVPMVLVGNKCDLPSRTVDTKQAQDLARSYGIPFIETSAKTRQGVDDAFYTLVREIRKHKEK
List of IC50 values.

Worked cases, answers included:
CN(C)CC1(COc2nc(N3CC4CC(C#N)C(C3)N4)c3cc(F)c(-c4cc(O)cc5ccccc45)c(F)c3n2)CC1 (stereo not drawn)    7450 nM
Oc1cc(-c2c(F)cc3c(N4CC5CCC(C4)N5)nc(OC[C@@]45CCCN4C[C@H](F)C5)nc3c2F)c2c(Cl)cccc2c1 (single isomer, unassigned) [Ex. 160b]    367 nM

Consider the additional compound presented here.
Request body: readout IC50, system KRAS protein containing G12D mutation (Homo sapiens (Human), UniProt P01116, G12D), query Nc1nc2c(-c3c(Cl)cc4c(N5CC6CCC(C5)N6)nc(OC[C@@]56CCCN5C[C@H](F)C6)nc4c3F)c(F)cc(F)c2o1 (single isomer, unassigned) [Ex. 133b] . Return the value.
1.16 nM
